# Tested on: OVCAR-4 ovarian
# method.notes: NCI tumour cell line growth inhibition, 48 h
quantity: TGI (µM)
Field: numeric (µM). Do not append units.

Please give the measured TGI for this molecule: CN=C(Nc1cccc(C(F)(F)F)c1)SCc1ccc(N=C=S)cc1
26.8

Next:
Please give the measured TGI for this molecule: COC(=O)c1cc(-c2ccc(OC)c(OC)c2)[nH]c1N/N=C/c1c(Cl)cccc1Cl
12.1

---

Listed here: items and their measured TGI.
# Test system: SK-MEL-28 melanoma
# method.notes: NCI tumour cell line growth inhibition, 48 h

Below: 3 compounds and their reported TGI.
Please give the measured TGI for this compound: COc1ccc2c3c1O[C@H](c1ccc(O)cc1)[C@H]3[N+](C)(C)CC2
> 100 µM

Please give the measured TGI for this compound: NNc1nnc(-c2nnc(NN)o2)o1
> 10 µM

Please give the measured TGI for this compound: COc1cc(C2(C)SCCCS2)cc(OC)c1OC
> 100 µM

Next, consider the following compound.
Please give the measured TGI for this compound: O=c1[nH]c(Nc2nc3ccccc3[nH]2)nc(O)c1Cc1ccccc1
> 100 µM

The origin of these recorded values is PubChem BioAssay (NCI).
